Below is a list of entries, each paired with its recorded pIC50 value.
biological target: UniProt:Q5HK19; assay: Inhibition of YycG′ autophosphorylation (Kinase-Glo Luminescent Kinase Assay); settings: Kinase-Glo; 2 μg YycG′; 4 μM ATP; read-out: IC50 (inhibition of autophosphorylation of recombinant YycG′)
pIC50: −log10 of the molar value.

Molecule	Target Entity	pIC50
O=C(O)c1cccc(-c2ccc(C=c3sc4n(c3=O)C(c3ccc(F)cc3)C=C(c3ccccc3)N=4)o2)c1 (stereo not shown) [H5-33]	UniProt:Q5HK19	4.19
O=C(O)c1cccc(-c2ccc(C=c3sc4n(c3=O)C(c3ccc(Cl)cc3)C=C(c3ccccc3)N=4)o2)c1 (stereo not shown) [H5-25]	UniProt:Q5HK19	4.10
CCOC(=O)C1=C(c2ccccc2)N=c2sc(=Cc3ccc(-c4cccc(C(=O)O)c4)o3)c(=O)n2C1c1ccc(F)cc1 (stereo not shown) [H5-32]	UniProt:Q5HK19	4.08
CCOC(=O)C1=C(c2ccccc2)N=c2sc(=Cc3ccc(-c4ccc(C(=O)O)cc4)o3)c(=O)n2C1c1ccc(F)cc1 (stereo not shown) [H5-35]	UniProt:Q5HK19	4.11

====

In this section we review reported IC50 values for a set of compounds.
Molecular target: YycG′ protein (Staphylococcus epidermidis)
Sequence (Q5HK19 384-602 limits assumed): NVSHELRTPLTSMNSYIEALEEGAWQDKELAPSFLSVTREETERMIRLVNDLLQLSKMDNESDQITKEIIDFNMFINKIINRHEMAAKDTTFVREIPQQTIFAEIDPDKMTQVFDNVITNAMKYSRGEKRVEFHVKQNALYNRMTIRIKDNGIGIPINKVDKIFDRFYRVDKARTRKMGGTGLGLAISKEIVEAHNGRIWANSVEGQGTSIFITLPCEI
Experiment: Inhibition of YycG′ autophosphorylation (Kinase-Glo Luminescent Kinase Assay)
Details: Kinase-Glo; 2 μg YycG′; 4 μM ATP; read-out: IC50 (inhibition of autophosphorylation of recombinant YycG′)

Compound	IC50
CCOC(=O)C1=C(c2ccccc2)N=c2sc(=Cc3ccc(-c4ccc(C(=O)O)cc4)o3)c(=O)n2C1c1ccc(Cl)cc1 (stereo not drawn) [H5-34]	61.9 µM
COc1ccc(C2C=C(c3ccccc3)N=c3sc(=Cc4ccc(-c5cccc(C(=O)O)c5)o4)c(=O)n32)cc1 (stereo not drawn) [H5-24]	82.2 µM
CCOC(=O)C1=C(c2ccccc2)N=c2sc(=Cc3ccc(-c4cccc(C(=O)O)c4)o3)c(=O)n2C1c1ccc(Cl)cc1 (stereo not drawn) [H5-23]	77.2 µM

====

tested on: methicillin-resistant S. aureus (MRSA) clinical isolates; assay: MIC and MBC against clinical MRSA isolates; assay type: cell-based; conditions: Staphylococcus aureus, MRSA strain 69, ST217, read-out: MIC
Value Kind: MIC (µM)

Compound	Value Kind	Unit Of Measurement	Numeric Readout
CCOC(=O)C1=C(c2ccccc2)N=c2sc(=Cc3ccc(-c4ccc(C(=O)O)cc4)o3)c(=O)n2C1c1ccc(F)cc1 (stereo not shown)	MIC	µM	6.25
CCOC(=O)C1=C(c2ccccc2)N=c2sc(=Cc3ccc(-c4ccc(C(=O)O)cc4)o3)c(=O)n2C1c1ccc(Cl)cc1 (stereo not shown)	MIC	µM	6.25
CCOC(=O)C1=C(c2ccccc2)N=c2sc(=Cc3ccc(-c4cccc(C(=O)O)c4)o3)c(=O)n2C1c1ccc(F)cc1 (stereo not shown)	MIC	µM	3.13
O=C(O)c1cccc(-c2ccc(C=c3sc4n(c3=O)C(c3ccc(F)cc3)C=C(c3ccccc3)N=4)o2)c1 (stereo not shown)	MIC	µM	6.25

====

Property: Inhibition of ArlS’ phosphorylation; scope: individual compounds
biological target: ArlS' protein (Staphylococcus epidermidis); construct: made in house; test: Inhibition of ArlS' autophosphorylation (Kinase-Glo Luminescent Kinase Assay); type: biochemical, S. epidermidis; conditions: 200 μM derivative; 2 μg purified protein; 4 μM ATP
Sequence (Q5HPC4 240-456): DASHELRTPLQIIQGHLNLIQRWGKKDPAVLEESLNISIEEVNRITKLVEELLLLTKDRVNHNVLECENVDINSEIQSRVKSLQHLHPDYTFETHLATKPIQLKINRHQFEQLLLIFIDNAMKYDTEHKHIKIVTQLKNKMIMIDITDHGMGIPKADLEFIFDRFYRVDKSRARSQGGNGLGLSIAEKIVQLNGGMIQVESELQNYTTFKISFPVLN

Compound	Target Entity	Inhibition of ArlS’ phosphorylation / %
CCOC(=O)C1=C(c2ccccc2)N=c2sc(=Cc3ccc(-c4ccc(C(=O)O)cc4)o3)c(=O)n2C1c1ccc(F)cc1 (stereo not shown)	ArlS' protein (Staphylococcus epidermidis)	-1.5
O=C(O)c1cccc(-c2ccc(C=c3sc4n(c3=O)C(c3ccc(F)cc3)C=C(c3ccccc3)N=4)o2)c1 (stereo not shown)	ArlS' protein (Staphylococcus epidermidis)	-5.1
CCOC(=O)C1=C(c2ccccc2)N=c2sc(=Cc3ccc(-c4ccc(C(=O)O)cc4)o3)c(=O)n2C1c1ccc(Cl)cc1 (stereo not shown)	ArlS' protein (Staphylococcus epidermidis)	-5.6
CCOC(=O)C1=C(c2ccccc2)N=c2sc(=Cc3ccc(-c4cccc(C(=O)O)c4)o3)c(=O)n2C1c1ccc(F)cc1 (stereo not shown)	ArlS' protein (Staphylococcus epidermidis)	-5.9

====

tested on: S. epidermidis ATCC 35984 mature biofilms; experiment: Cell viability in mature (24 h) biofilms by CLSM with Live/Dead staining; assay type: cell-based, Staphylococcus epidermidis; conditions: 4 × MIC; 16 h; 24 h mature biofilm; Image J
Value Kind: SYTO9 fluorescence quantity (viable cells)

Molecule	Target Entity	Result
CCOC(=O)C1=C(c2ccccc2)N=c2sc(=Cc3ccc(-c4cccc(C(=O)O)c4)o3)c(=O)n2C1c1ccc(Cl)cc1 (stereo not shown)	S. epidermidis ATCC 35984 mature biofilms	10.333 ± 4.39
CCOC(=O)C1=C(c2ccccc2)N=c2sc(=Cc3ccc(-c4cccc(C(=O)O)c4)o3)c(=O)n2C1c1ccc(F)cc1 (stereo not shown)	S. epidermidis ATCC 35984 mature biofilms	20.321 ± 4.66
COc1ccc(C2C=C(c3ccccc3)N=c3sc(=Cc4ccc(-c5cccc(C(=O)O)c5)o4)c(=O)n32)cc1 (stereo not shown)	S. epidermidis ATCC 35984 mature biofilms	12.554 ± 4.23
O=C(O)c1cccc(-c2ccc(C=c3sc4n(c3=O)C(c3ccc(Cl)cc3)C=C(c3ccccc3)N=4)o2)c1 (stereo not shown)	S. epidermidis ATCC 35984 mature biofilms	61.188 ± 5.49
CCOC(=O)C1=C(c2ccccc2)N=c2sc(=Cc3ccc(-c4ccc(C(=O)O)cc4)o3)c(=O)n2C1c1ccc(Cl)cc1 (stereo not shown)	S. epidermidis ATCC 35984 mature biofilms	62.165 ± 6.71
O=C(O)c1cccc(-c2ccc(C=c3sc4n(c3=O)C(c3ccc(F)cc3)C=C(c3ccccc3)N=4)o2)c1 (stereo not shown)	S. epidermidis ATCC 35984 mature biofilms	9.669 ± 3.64
CCOC(=O)C1=C(c2ccccc2)N=c2sc(=Cc3ccc(-c4ccc(C(=O)O)cc4)o3)c(=O)n2C1c1ccc(F)cc1 (stereo not shown)	S. epidermidis ATCC 35984 mature biofilms	16.283 ± 4.75

====

Parameter: MBC. Scope: all listed entries.
system: S. epidermidis ATCC 35984; assay: MIC and MBC tube-dilution assay; format: cell-based; conditions: Staphylococcus epidermidis, ATCC35984, 99.9% reduction of inoculum

Compound	MBC, µM
CCOC(=O)C1=C(c2ccccc2)N=c2s/c(=C\c3ccc(-c4cccc(C(=O)O)c4)o3)c(=O)n2C1c1ccc2c(c1)OCO2 (centres unmarked)	25
CCOC(=O)C1=C(c2ccccc2)N=c2sc(=Cc3ccc(-c4cccc(C(=O)O)c4)o3)c(=O)n2C1c1ccc(Cl)cc1 (centres unmarked)	25
CCOC(=O)C1=C(c2ccccc2)N=c2sc(=Cc3ccc(-c4ccc(C(=O)O)cc4)o3)c(=O)n2C1c1ccc(F)cc1 (centres unmarked)	12.5
COc1ccc(C2C=C(c3ccccc3)N=c3sc(=Cc4ccc(-c5cccc(C(=O)O)c5)o4)c(=O)n32)cc1 (centres unmarked)	50
O=C(O)c1cccc(-c2ccc(C=c3sc4n(c3=O)C(c3ccc(Cl)cc3)C=C(c3ccccc3)N=4)o2)c1 (centres unmarked)	50
O=C(O)c1cccc(-c2ccc(C=c3sc4n(c3=O)C(c3ccc(F)cc3)C=C(c3ccccc3)N=4)o2)c1 (centres unmarked)	12.5
CCOC(=O)C1=C(c2ccccc2)N=c2sc(=Cc3ccc(-c4ccc(C(=O)O)cc4)o3)c(=O)n2C1c1ccc(Cl)cc1 (centres unmarked)	25
CCOC(=O)C1=C(c2ccccc2)N=c2sc(=Cc3ccc(-c4cccc(C(=O)O)c4)o3)c(=O)n2C1c1ccc(F)cc1 (centres unmarked)	100

====

// endpoint MIC / system S. epidermidis ATCC 35984
Value Kind: MIC (µM)

Compound	Value Kind	Numeric Readout
CCOC(=O)C1=C(c2ccccc2)N=c2s/c(=C\c3ccc(-c4cccc(C(=O)O)c4)o3)c(=O)n2C1c1ccc2c(c1)OCO2 (centres unmarked) [Compound 5]	MIC	6.25
CCOC(=O)C1=C(c2ccccc2)N=c2sc(=Cc3ccc(-c4cccc(C(=O)O)c4)o3)c(=O)n2C1c1ccc(F)cc1 (centres unmarked) [H5-32]	MIC	3.13
COc1ccc(C2C=C(c3ccccc3)N=c3sc(=Cc4ccc(-c5cccc(C(=O)O)c5)o4)c(=O)n32)cc1 (centres unmarked) [H5-24]	MIC	1.56
CCOC(=O)C1=C(c2ccccc2)N=c2sc(=Cc3ccc(-c4ccc(C(=O)O)cc4)o3)c(=O)n2C1c1ccc(Cl)cc1 (centres unmarked) [H5-34]	MIC	3.13
O=C(O)c1cccc(-c2ccc(C=c3sc4n(c3=O)C(c3ccc(Cl)cc3)C=C(c3ccccc3)N=4)o2)c1 (centres unmarked) [H5-25]	MIC	1.56
CCOC(=O)C1=C(c2ccccc2)N=c2sc(=Cc3ccc(-c4cccc(C(=O)O)c4)o3)c(=O)n2C1c1ccc(Cl)cc1 (centres unmarked) [H5-23]	MIC	1.56
CCOC(=O)C1=C(c2ccccc2)N=c2sc(=Cc3ccc(-c4ccc(C(=O)O)cc4)o3)c(=O)n2C1c1ccc(F)cc1 (centres unmarked) [H5-35]	MIC	3.13
O=C(O)c1cccc(-c2ccc(C=c3sc4n(c3=O)C(c3ccc(F)cc3)C=C(c3ccccc3)N=4)o2)c1 (centres unmarked) [H5-33]	MIC	3.13
